- ASSAY COMMENT: Pharmacokinetic evaluation of compounds in SD rats
- Type: in vivo, Sprague Dawley rats
- CONDITION: male, Sprague-Dawley, rat, plasma, single intravenous injection and oral administration, read-out: Clearance rate
MEASURED ENDPOINT: clearance (mL/min/kg)

CCC(O)(CC)CCCCn1c(=O)c2c(ncn2C)n(C)c1=O [Embodiment 2] :: 63.6
Cn1c(=O)n(Cc2ccc(C(C)(O)C(F)(F)F)nc2)c(=O)c2c1ncn2CC1CC1 (stereo not drawn) [Embodiment 55] :: 21.5
Cn1c(=O)n(CC2CCC(O)(C(F)(F)F)CC2)c(=O)c2c1ncn2CC1CC1 (single isomer, unassigned) [Embodiment 50 isomer 2] :: 71.6
Cn1cnc2c1c(=O)n(CC1CCC(O)(C(F)(F)F)CC1)c(=O)n2C (single isomer, unassigned) [Embodiment 12 isomer 2] :: 41
Cn1cnc2c1c(=O)n(Cc1ccc(C(C)(O)C(F)(F)F)nc1)c(=O)n2C (stereo not drawn) [Embodiment 28] :: 12.9
Cn1c(=O)n(CC2CCC(C)(O)CC2)c(=O)c2c1ncn2CC1CC1 (single isomer, unassigned) [Embodiment 51 isomer 2] :: 54.4

* * *

- System: TNF-α
- ASSAY COMMENT: Effect of compounds on TNF-α in LPS-induced blood of rats in vitro (ELISA)
- Assay type: cell-based, Sprague Dawley rats
- CONDITION: compound 100 μM; LPS-induced rat blood, 5 hours; plasma TNF-α by ELISA; read-out: TNF-α inhibition ratio
MEASURED ENDPOINT: inhibition at 100 µM

Cn1c(=O)n(Cc2ccc(C(C)(O)C(F)(F)F)nc2)c(=O)c2c1ncn2CC1CC1 (stereo not shown) [Embodiment 55] :: 80 to 100%
Cn1c(=O)n(CC2CCC(O)(C(F)(F)F)CC2)c(=O)c2c1ncn2CC1CC1 (stereo not shown) [Embodiment 49] :: 80 to 100%
C[C@H](O)CNCCn1c(=O)c2c(ncn2C)n(C)c1=O [Embodiment 40] :: 60 to 80%
Cn1cnc2c1c(=O)n(CC1CCC(O)(C(F)(F)F)CC1)c(=O)n2C (stereo not shown) [Embodiment 11] :: 60 to 80%
Cn1cnc2c1c(=O)n(Cc1ccc(C(C)(O)C(F)(F)F)cc1)c(=O)n2C (stereo not shown) [Embodiment 27] :: 60 to 80%
Cn1c(=O)n(CC2CCC(O)(C(F)(F)F)CC2)c(=O)c2c1ncn2CC(F)(F)F (stereo not shown) [Embodiment 44] :: 80 to 100%
Cn1cnc2c1c(=O)n(CCCCC(C)(O)C(F)(F)F)c(=O)n2C (stereo not shown) [Embodiment 1] :: 60 to 80%
Cn1cnc2c1c(=O)n(CC1CCC(O)(C(F)(F)F)CC1)c(=O)n2C (single isomer, unassigned) [Embodiment 12 isomer 1] :: 60 to 80%
Cn1c(=O)n(CC2CCC(O)(C(F)(F)F)CC2)c(=O)c2c1ncn2CC1CC1 (single isomer, unassigned) [Embodiment 50 isomer 2] :: 80 to 100%
Cn1c(=O)n(CC2CCC(C)(O)CC2)c(=O)c2c1ncn2CC1CC1 (single isomer, unassigned) [Embodiment 51 isomer 2] :: 80 to 100%

* * *

- ASSAY COMMENT: Pharmacokinetic evaluation of compounds in SD rats
- Assay type: in vivo, Sprague Dawley rats
- CONDITION: male, Sprague-Dawley, rat, plasma, single intravenous injection and oral administration, read-out: Half-life T1/2 (converted)
The compounds listed here are annotated with their half-life.
MEASURED ENDPOINT: half-life (min)

Cn1cnc2c1c(=O)n(Cc1ccc(C(C)(O)C(F)(F)F)cc1)c(=O)n2C (stereo not shown) [Embodiment 27] :: 178
Cn1c(=O)n(CC2CCC(O)(C(F)(F)F)CC2)c(=O)c2c1ncn2CC1CC1 (single isomer, unassigned) [Embodiment 50 isomer 2] :: 33.6
CC(C)Cn1cnc2c1c(=O)n(CC1CCC(O)(C(F)(F)F)CC1)c(=O)n2C (single isomer, unassigned) [Embodiment 58 isomer 2] :: 33.6
Cn1c(=O)n(Cc2ccc(C(C)(O)C(F)(F)F)nc2)c(=O)c2c1ncn2CC1CC1 (stereo not shown) [Embodiment 55] :: 131
Cn1cnc2c1c(=O)n(CCCCC(C)(O)C(F)(F)F)c(=O)n2C (stereo not shown) [Embodiment 1] :: 39.5
Cn1c(=O)n(CC2CCC(C)(O)CC2)c(=O)c2c1ncn2CC1CC1 (single isomer, unassigned) [Embodiment 51 isomer 2] :: 47.6
Cn1cnc2c1c(=O)n(Cc1ccc(C(C)(O)C(F)(F)F)nc1)c(=O)n2C (stereo not shown) [Embodiment 28] :: 136

* * *

- ASSAY COMMENT: Pharmacokinetic evaluation of compounds in SD rats
- Type: in vivo, Sprague Dawley rats
- CONDITION: male, Sprague-Dawley, rat, plasma, single intravenous injection and oral administration, read-out: Clearance rate
The compounds listed here are annotated with their clearance.
MEASURED ENDPOINT: clearance (mL/min/kg)

Cn1cnc2c1c(=O)n(Cc1ccc(C(C)(O)C(F)(F)F)cc1)c(=O)n2C (stereo not shown) :: 13.6
CC(C)Cn1cnc2c1c(=O)n(CC1CCC(O)(C(F)(F)F)CC1)c(=O)n2C (single isomer, unassigned) [Embodiment 58 isomer 2] :: 71.6
Cn1cnc2c1c(=O)n(CCCCC(C)(O)C(F)(F)F)c(=O)n2C (stereo not shown) :: 54.7
Cn1c(=O)n(CC2CCC(O)(C(F)(F)F)CC2)c(=O)c2c1ncn2CC(F)(F)F (single isomer, unassigned) [Embodiment 45 isomer 2] :: 58.4

* * *

- ASSAY COMMENT: Pharmacokinetic evaluation of compounds in SD rats
- Assay type: in vivo, Sprague Dawley rats
- CONDITION: male, Sprague-Dawley, rat, plasma, single intravenous injection and oral administration, read-out: Bioavailability F
The compounds listed here are annotated with their bioavailability.
MEASURED ENDPOINT: bioavailability (%)

Cn1cnc2c1c(=O)n(CC1CCC(O)(C(F)(F)F)CC1)c(=O)n2C (single isomer, unassigned) [Embodiment 12 isomer 2] :: 34.1
Cn1c(=O)n(CC2CCC(O)(C(F)(F)F)CC2)c(=O)c2c1ncn2CC(F)(F)F (single isomer, unassigned) [Embodiment 45 isomer 2] :: 17.1
Cn1c(=O)n(CC2CCC(C)(O)CC2)c(=O)c2c1ncn2CC1CC1 (single isomer, unassigned) [Embodiment 51 isomer 2] :: 47.9
Cn1c(=O)n(CC2CCC(O)(C(F)(F)F)CC2)c(=O)c2c1ncn2CC1CC1 (single isomer, unassigned) [Embodiment 50 isomer 2] :: 42.6
Cn1cnc2c1c(=O)n(Cc1ccc(C(C)(O)C(F)(F)F)nc1)c(=O)n2C (stereo not drawn) [Embodiment 28] :: 149
Cn1c(=O)n(Cc2ccc(C(C)(O)C(F)(F)F)nc2)c(=O)c2c1ncn2CC1CC1 (stereo not drawn) [Embodiment 55] :: 95.8

* * *

- ASSAY COMMENT: Pharmacokinetic evaluation of compounds in SD rats
- Assay type: in vivo, Sprague Dawley rats
- CONDITION: male, Sprague-Dawley, rat, plasma, single intravenous injection and oral administration, read-out: Bioavailability F
The molecules listed here are annotated with their bioavailability.
MEASURED ENDPOINT: bioavailability

Cn1cnc2c1c(=O)n(CCCCC(C)(O)C(F)(F)F)c(=O)n2C (stereo not shown) [Embodiment 1] :: 59.7%
CCC(O)(CC)CCCCn1c(=O)c2c(ncn2C)n(C)c1=O [Embodiment 2] :: 34.2%
CC(C)Cn1cnc2c1c(=O)n(CC1CCC(O)(C(F)(F)F)CC1)c(=O)n2C (single isomer, unassigned) [Embodiment 58 isomer 2] :: 42.6%
Cn1cnc2c1c(=O)n(Cc1ccc(C(C)(O)C(F)(F)F)cc1)c(=O)n2C (stereo not shown) [Embodiment 27] :: 33.8%

Where do these numbers come from? They come from patent USRE49128E1.
